Would you kindly list TGI for each of these compounds?
system: UACC-62 melanoma; assay: NCI tumour cell line growth inhibition, 48 h
State the answer as a number, implicitly in µM.

Could you share which TGI value was measured for COc1ccc(-c2cc(C(O)C3CCCCN3)c3ccccc3n2)cc1 (stereo not given) ?
12

Now the same for O=c1c2ccccc2oc2ccc(OCCCCCCN3CCCCCC3)cc12
4.78

Request: CCOc1ccc(C(CN2CCOCC2)C(C)=O)cc1OC (stereo not given)
32.8

Try the compound C=C(C)[C@@H]1CC[C@]2(C(=O)O)CC[C@]3(C)[C@H](CCC4[C@@]5(C)CC[C@H](C(=O)/C=C/c6ccc(O)c(O)c6)C(C)(C)[C@@H]5CC[C@]43C)[C@@H]12 (stereo not given in full)
27.6
